system: MCF7; assay: Antiproliferative activity against human MCF7 cells assessed as cell growth inhibition; type: functional
observed.property: GI50

Here are 2 compounds together with their reported answers.
O=C(COc1ccc(/C=C2\SC(=O)NC2=O)cc1)Nc1c(F)cc(Br)cc1F | 57.3 µM
COc1cccc2c1C(=O)c1c(O)c3c(c(O)c1C2=O)C[C@@](O)(C(=O)CO)C[C@@H]3O[C@H]1C[C@H](N)[C@H](O)[C@H](C)O1 | < 0.1 µM

# value lookup — system MCF7, readout GI50, item Cc1cccc2sc(NC(=O)COc3ccc(/C=C4\SC(=O)NC4=O)cc3)nc12
61.2 µM

Quick check: GI50 on MCF7, item Cc1cc(Br)ccc1NC(=O)COc1ccc(/C=C2\SC(=O)NC2=O)cc1 ?
66.8 µM

// map O=C(COc1ccc(/C=C2\SC(=O)NC2=O)cc1)Nc1ccc(F)cc1 to recorded GI50 (system: MCF7)
54.6 µM

----------
Below: a set of entries, each annotated with reported GI50.
system: MCF7; assay: Antiproliferative activity against human MCF7 cells assessed as cell growth inhibition; assay type: functional
Give the number; µM is assumed, so skip it.

Cc1ccc(NC(=O)COc2ccc(/C=C3\SC(=O)NC3=O)cc2)cc1Cl | 61.8
O=C(COc1ccc(/C=C2\SC(=O)NC2=O)cc1)Nc1ccc([N+](=O)[O-])cc1 | 72.5
O=C(COc1ccc(/C=C2\SC(=O)NC2=O)cc1)Nc1cccc([N+](=O)[O-])c1 | 58.5
O=C(COc1ccc(/C=C2\SC(=O)NC2=O)cc1)Nc1ccccc1 | 74.5
O=C(COc1ccc(/C=C2\SC(=O)NC2=O)cc1)Nc1ccc(Br)cc1 | 55.1
O=C(COc1ccc(/C=C2\SC(=O)NC2=O)cc1)Nc1ccc(C(F)(F)F)cc1Cl | 67.4
O=C(COc1ccc(/C=C2\SC(=O)NC2=O)cc1)Nc1ccc(Cl)cc1C(F)(F)F | 49.7
O=C(COc1ccc(/C=C2\SC(=O)NC2=O)cc1)Nc1c(Cl)cccc1Cl | 61.7

Give MCF7 GI50 for Cc1cccc(NC(=O)COc2ccc(/C=C3\SC(=O)NC3=O)cc2)n1
28.3

Recorded GI50 for O=C(COc1ccc(/C=C2\SC(=O)NC2=O)cc1)Nc1ccc(F)cc1F with MCF7, please?
65.8

So what GI50 did O=C(COc1ccc(/C=C2\SC(=O)NC2=O)cc1)Nc1ccc(Cl)cc1 get with MCF7?
51.1
